EC50 values by entry
Target Or Test System: Cynomolgus CD16A fused to IgG Fc (cynomolgus; human) (UniProt Q8SPW2)
Sequence (Q8SPW2 17-208): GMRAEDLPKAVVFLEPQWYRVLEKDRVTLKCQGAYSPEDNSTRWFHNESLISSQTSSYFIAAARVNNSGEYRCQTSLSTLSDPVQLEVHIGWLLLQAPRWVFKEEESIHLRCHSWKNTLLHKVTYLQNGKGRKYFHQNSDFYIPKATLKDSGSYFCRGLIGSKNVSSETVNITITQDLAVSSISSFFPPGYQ
Protocol: ELISA, coated antigen-IgG Fc
Attribute Measured: EC50

scFv CD16A (CD16-4) (scFv) scFv: QVQLVQSGAEVKKPGESLKVSCKASGYSFSDFYIQWVRQAPGQGLEWMGIINPGGASTTYAQKFQGRVTMTRDTSTSTVYMELSSLRSEDTAVYYCARGSAYYYDFADYWGQGTLVTVSSGGSGGSGGSGGSGGSGGSSYVLTQPSSVSVAPGQTARITCGGYNIGRQSVHWYQQKPGQAPVLVIYQDSKRPSGIPERFSGSNSGNTATLTISGTQAMDEADYYCQVWDNYTVVFGGGTKLTVLAAAGSHHHHHH :: 1.4 nM
scFv CD16A (CD16-5) (scFv) scFv: QVQLVQSGAEVKKPGESLKVSCKASGYTFSSYYMHWVRQAPGQGLEWMGAIEPRGVRISYAQKFQGRVTMTRDTSTSTVYMELSSLRSEDTAVYYCARGSAYYYDFADYWGQGTLVTVSSGGSGGSGGSGGSGGSGGSSYVLTQPSSVSVAPGQTARITCGGHNIGSTNVHWYQQKPGQAPVLVIYQDSKRPSGIPERFSGSNSGNTATLTISGTQAMDEADYYCQVWDNYSVQFGGGTKLTVLAAAGSHHHHHH :: 1.4 nM
scFv CD16A (CD16-3) (scFv) scFv: QVQLVQSGAEVKKPGESLKVSCKASGYTFTNYYMQWVRQAPGQGLEWMGVINPGGGSTSYAQKFQGRVTMTRDTSTSTVYMELSSLRSEDTAVYYCARGSAYYYDFADYWGQGTLVTVSSGGSGGSGGSGGSGGSGGSSYVLTQPSSVSVAPGQTARITCGGHNIGSQSVHWYQQKPGQAPVLVIYQDSKRPSGIPERFSGSNSGNTATLTISGTQAMDEADYYCQVWDNYSVVFGGGTKLTVLAAAGSHHHHHH :: 1.4 nM
